Target: T1, human beta-Klotho (human, UniProt Q86Z14 1-1044)
T1 sequence (looked up): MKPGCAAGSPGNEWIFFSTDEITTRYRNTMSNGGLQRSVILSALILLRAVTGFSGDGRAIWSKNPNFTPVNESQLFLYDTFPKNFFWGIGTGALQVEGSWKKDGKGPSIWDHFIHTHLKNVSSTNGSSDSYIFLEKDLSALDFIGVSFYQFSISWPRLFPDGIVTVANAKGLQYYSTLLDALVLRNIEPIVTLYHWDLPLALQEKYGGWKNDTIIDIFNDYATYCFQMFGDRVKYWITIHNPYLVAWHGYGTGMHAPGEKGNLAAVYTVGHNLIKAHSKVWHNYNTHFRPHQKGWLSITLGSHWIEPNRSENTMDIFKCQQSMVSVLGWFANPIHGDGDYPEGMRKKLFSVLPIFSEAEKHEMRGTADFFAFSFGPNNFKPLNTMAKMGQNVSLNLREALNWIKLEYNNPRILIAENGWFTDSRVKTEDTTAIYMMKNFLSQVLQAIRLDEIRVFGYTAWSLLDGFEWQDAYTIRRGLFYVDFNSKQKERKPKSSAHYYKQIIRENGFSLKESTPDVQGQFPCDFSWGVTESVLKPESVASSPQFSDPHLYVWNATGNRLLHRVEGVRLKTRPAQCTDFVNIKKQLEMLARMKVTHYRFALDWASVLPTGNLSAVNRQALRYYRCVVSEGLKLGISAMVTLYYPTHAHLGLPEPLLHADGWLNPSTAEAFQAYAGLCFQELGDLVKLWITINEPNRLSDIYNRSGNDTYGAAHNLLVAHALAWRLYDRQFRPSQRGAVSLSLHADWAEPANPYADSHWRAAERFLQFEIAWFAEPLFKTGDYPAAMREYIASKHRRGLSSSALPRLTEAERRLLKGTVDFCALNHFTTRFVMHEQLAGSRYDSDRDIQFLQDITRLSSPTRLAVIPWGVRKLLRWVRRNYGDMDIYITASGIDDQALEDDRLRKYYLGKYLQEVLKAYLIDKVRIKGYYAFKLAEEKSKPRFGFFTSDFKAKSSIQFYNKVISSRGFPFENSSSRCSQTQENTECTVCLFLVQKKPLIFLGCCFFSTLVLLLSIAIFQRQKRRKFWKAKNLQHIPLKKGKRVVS
Assay: cell-based or functional assay
readout name: FGF21 activity (EC50, nM); p-ERK levels
Give bare numbers, in nM.

Examples with their reported FGF21 activity (EC50, nM); p-ERK levels follow.
[
  {
    "binder": "Compound 22 (ligand, Moiety A (HOOC-(CH2)16-CO-gGlu-2XADO) on 51K and 231K of fusion polypeptide) HGEGTFTSDVSSYLEEQAAREFIAWLVRGGGGGGGSGGGGSGGGGSGGGGKHPIPDSSPLLQFGGQVRQRYLYTDDAQQTEAHLEIREDGTVGGAADQSPESLLQLRALRPGVIQILGVRTSRFLCQRPDGALYGSLHFDPEACSFRELLLEDGYNVYQSEAHGLPLHLPGQRSPHRDPAPRGPARFLPLPGLPPALPEPPGILAPQPPDVGSSDPLSLVGGSQGRSPSYK",
    "FGF21 activity (EC50, nM); p-ERK levels": 7
  },
  {
    "binder": "Compound 73 (ligand, Moiety B (HOOC-(CH2)20-CO-gGlu-2XADO-EDA-CO-CH2) on 42C and 282C of fusion polypeptide) HGEGTFTSDVSSYLEEQAAKEFIAWLVKGGGGAQPGAQPGQCPGAQPGAQPGAQPGAQPGAQPGAQPGAQPGAQPGAQPGAQPGAQPGAQPGAQPGAQPGAQPGAQPGAQPHPIPDSSPLLQFGGQVRQRYLYTDDAQQTEAHLEIREDGTVGGAADQSPESLLQLKALKPGVIQILGVKTSRFLCQRPDGALYGSLHFDPEACSFRELLLEDGYNVYQSEAHGLPLHLPGQKSPHRDPAPRGPARFLPLPGLPPALPEPPGILAPQPPDVGSSDPLSLVGCSQGRSPSYES",
    "FGF21 activity (EC50, nM); p-ERK levels": 3.6
  }
]

What value of FGF21 activity (EC50, nM); p-ERK levels has been recorded for this entry: Compound 12 (ligand, Moiety A (HOOC-(CH2)16-CO-gGlu-2XADO) on 225K of fusion polypeptide) HGEGTFTSDVSSYLEEQAAREFIAWLVRGGGGGGGSGGGGSGGGGSGGGGSHPIPDSSPLLQFGGQVRQRYLYTDDAQQTEAHLEIREDGTVGGAADQSPESLLQLRALRPGVIQILGVRTSRFLCQRPDGALYGSLHFDPEACSFRELLLEDGYNVYQSEAHGLPLHLPGQRSPHRDPAPRGPARFLPLPGLPPALPEPPGILAPQPPDVGSSDPLSLVGGSQKRSPSYES
4.1
